The measured values listed here are drawn from ChEMBL document CHEMBL1135717.

Provide the reported NCC of each item.
# assayProtocol: Toxicity assessed in human T-cells using a colorimetric cell proliferation assay.
# Format: cell-based
Numbers only, in %.

>  <smilesInput>
CC(C)CCn1cc(NC(=O)c2ccc(C(=O)Nc3cc(C(=O)NCCN)n(CCC(C)C)c3)cc2)cc1C(=O)NCCN

>  <NCC, %>
24

$$$$
>  <smilesInput>
Cc1cc(C(=O)Nc2cc(C(=O)NCCC(=N)N)n(CCC(C)C)c2)ccc1C(=O)Nc1cc(C(=O)NCCC(=N)N)n(CCC(C)C)c1

>  <NCC, %>
38

$$$$
>  <smilesInput>
CC(C)CCn1cc(NC(=O)c2ccc(C(=O)Nc3cc(C(=O)NCCC(=N)N)n(CCC(C)C)c3)nc2)cc1C(=O)NCCC(=N)N

>  <NCC, %>
3

$$$$
>  <smilesInput>
CNC(=N)CCNC(=O)c1cc(NC(=O)c2ccc(C(=O)Nc3cc(C(=O)NCCC(=N)NC)n(CCC(C)C)c3)cc2)cn1CCC(C)C

>  <NCC, %>
78

$$$$
>  <smilesInput>
N=C(N)CCNC(=O)c1cc(NC(=O)c2cc(C(=O)Nc3cc(C(=O)NCCC(=N)N)n(CC4CC4)c3)[nH]n2)cn1CC1CC1

>  <NCC, %>
88

$$$$

Lab note: each compound below needs its NCC filled in.
1. Cc1cc(C(=O)Nc2cc(C(=O)NCCC(=N)N)n(CCC(C)C)c2)c(C)cc1C(=O)Nc1cc(C(=O)NCCC(=N)N)n(CCC(C)C)c1
2. CC(C)CCn1cc(NC(=O)c2ccc(C(=O)Nc3cc(C(=O)NCCC(=N)N)n(CCC(C)C)c3)cc2)cc1C(=O)NCCC(=N)N

75
4

----------
Would you kindly list NCC for each of these compounds?
# assayProtocol: Toxicity assessed in human T-cells using a colorimetric cell proliferation assay.
# Format: cell-based
Give bare numbers, in %.

>  <smilesInput>
CC(C)CCn1cc(NC(=O)c2ccc(C(=O)Nc3cc(C(=O)NCCC4=NCCCN4)n(CCC(C)C)c3)cc2)cc1C(=O)NCCC1=NCCCN1

>  <NCC (%)>
51

$$$$
>  <smilesInput>
CN=C(CCNC(=O)c1cc(NC(=O)c2ccc(C(=O)Nc3cc(C(=O)NCCC(=NC)NC)n(CCC(C)C)c3)cc2)cn1CCC(C)C)NC

>  <NCC (%)>
50

$$$$
>  <smilesInput>
CC(C)CCn1cc(NC(=O)c2cnc(C(=O)Nc3cc(C(=O)NCCC(=N)N)n(CCC(C)C)c3)cn2)cc1C(=O)NCCC(=N)N

>  <NCC (%)>
32

$$$$

Entry `CC(C)CCn1cc(NC(=O)c2ccc3cc(C(=O)Nc4cc(C(=O)NCCC(=N)N)n(CCC(C)C)c4)ccc3c2)cc1C(=O)NCCC(=N)N` : reported NCC = ?
0

----------
# Test system: Nucleic Acid
# assayProtocol: DNA binding measured as Changes in the DNA melting temperature of an AT-rich dodecamer (CGATTATTAAGC) (GCTTAATAATCG) upon binding of an equimolar amount of compound
# Assay type: nucleic-acid assay
observedProperty: ΔTm (°C)
Give bare numbers, in °C.

Solved cases below.
>  <molecule>
CC(C)CCn1cc(NC(=O)c2ccc3cc(C(=O)Nc4cc(C(=O)NCCC(=N)N)n(CCC(C)C)c4)ccc3c2)cc1C(=O)NCCC(=N)N

>  <ΔTm (°C)>
24

$$$$
>  <molecule>
Cc1cc(C(=O)Nc2cc(C(=O)NCCC(=N)N)n(CCC(C)C)c2)c(C)cc1C(=O)Nc1cc(C(=O)NCCC(=N)N)n(CCC(C)C)c1

>  <ΔTm (°C)>
12

$$$$
>  <molecule>
N=C(N)CCNC(=O)c1cc(NC(=O)c2ccc(C(=O)Nc3cc(C(=O)NCCC(=N)N)n(CC4CC4)c3)c([N+](=O)[O-])c2)cn1CC1CC1

>  <ΔTm (°C)>
28

$$$$
>  <molecule>
CC(C)CCn1cc(NC(=O)c2ccnc(C(=O)Nc3cc(C(=O)NCCC(=N)N)n(CCC(C)C)c3)c2)cc1C(=O)NCCC(=N)N

>  <ΔTm (°C)>
11

$$$$
>  <molecule>
C/N=C(\N)CCNC(=O)c1cc(NC(=O)c2ccc(C(=O)Nc3cc(C(=O)NCC/C(N)=N/C)n(CCC(C)C)c3)cc2)cn1CCC(C)C

>  <ΔTm (°C)>
28

$$$$
>  <molecule>
CC(C)CCn1cc(NC(=O)c2ccc(C(=O)Nc3cc(C(=O)NCCN=C(N)N)n(CCC(C)C)c3)cc2)cc1C(=O)NCCN=C(N)N

>  <ΔTm (°C)>
25

$$$$

Dear colleague, could you send me ΔTm for each of the items below? Thanks.
1. CC(C)CCn1cc(NC(=O)c2cnc(C(=O)Nc3cc(C(=O)NCCC(=N)N)n(CCC(C)C)c3)cn2)cc1C(=O)NCCC(=N)N
2. N=C(N)CCNC(=O)c1cc(NC(=O)c2cc(C(=O)Nc3cc(C(=O)NCCC(=N)N)n(CC4CC4)c3)[nH]n2)cn1CC1CC1
3. N=C(N)CCNC(=O)c1cc(NC(=O)c2ccc(C(=O)Nc3cc(C(=O)NCCC(=N)N)n(CC4CC4)c3)cc2)cn1CC1CC1

1: 20; 2: 26; 3: 28

Hi team, please reply with ΔTm for each item in this list.
1. CC(C)CCn1cc(NC(=O)C2CCC(C(=O)Nc3cc(C(=O)NCCC(=N)N)n(CCC(C)C)c3)CC2)cc1C(=O)NCCC(=N)N (stereo unspecified)
2. CC(C)CCn1cc(NC(=O)C2=CC=C(C(=O)Nc3cc(C(=O)NCCC(=N)N)n(CCC(C)C)c3)CC2)cc1C(=O)NCCC(=N)N

1. 11
2. 26
